Value source: ChEMBL document CHEMBL4480426

# assayed_target: Adenosine receptor A1 (Rattus norvegicus) (UniProt P25099)
pKi: −log10 of the molar value.
endpoint_label: pKi

Input: Adenosine receptor A1 (Rattus norvegicus) (UniProt P25099) / pKi / "Cn1c(=O)c2c(nc3n2CCCN3Cc2cccc(Cl)c2)n(C)c1=O" : value?
Output: 5.95 to 6.10

----------
# assayed_target: Adenosine receptor A2a (Homo sapiens, UniProt P29274)
# Sequence (P29274 whole entry): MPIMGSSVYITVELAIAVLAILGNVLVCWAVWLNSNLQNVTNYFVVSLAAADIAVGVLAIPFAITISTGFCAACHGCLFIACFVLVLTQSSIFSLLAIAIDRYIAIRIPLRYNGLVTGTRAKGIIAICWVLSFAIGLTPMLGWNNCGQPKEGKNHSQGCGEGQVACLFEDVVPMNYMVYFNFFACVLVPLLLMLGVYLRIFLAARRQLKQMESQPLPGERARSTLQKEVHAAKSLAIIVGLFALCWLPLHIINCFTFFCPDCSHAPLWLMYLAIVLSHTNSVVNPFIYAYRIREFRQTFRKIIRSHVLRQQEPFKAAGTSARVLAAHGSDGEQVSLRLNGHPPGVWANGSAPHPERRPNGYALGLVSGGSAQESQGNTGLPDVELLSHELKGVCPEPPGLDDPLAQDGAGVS
# protocol_description: Displacement of [3H]MSX2 from recombinant human adenosine A2a receptor expressed in HEK293 cells
endpoint_label: Ki (µM)
The reply should be a number in µM, with the unit left off.

Input: Consider the compound "Cc1ccccc1CN1CCCn2c1nc1c2c(=O)n(C)c(=O)n1C" and give its measured Ki.
Output: 1.02

New cases:
Input: Consider the compound "Cn1c(=O)c2c(nc3n2CCCN3Cc2ccccc2Br)n(C)c1=O" and give its measured Ki.
Output: 1.61

Input: Consider the compound "Cn1c(=O)c2c(nc3n2CCCN3Cc2cccs2)n(C)c1=O" and give its measured Ki.
Output: 2.02

Input: Consider the compound "COc1ccc(CN2CCCn3c2nc2c3c(=O)n(C)c(=O)n2C)cc1Cl" and give its measured Ki.
Output: 8

----------
# assayed_target: Adenosine receptor A2a (Homo sapiens)
# protocol_description: Displacement of [3H]MSX2 from recombinant human adenosine A2a receptor expressed in HEK293 cells
Quick reference for Ki among some molecules
The reply should be a number in nM, with the unit left off.

Guide cases for Ki, answers given:
Input: Adenosine receptor A2a (Homo sapiens) / Ki / "Cn1c(=O)c2c(nc3n2CCCCN3Cc2ccccc2Cl)n(C)c1=O" : value?
Output: 881

Input: Adenosine receptor A2a (Homo sapiens) / Ki / "Cn1c(=O)c2c(nc3n2CCCCN3Cc2ccc(Cl)cc2Cl)n(C)c1=O" : value?
Output: 1580

Input: Adenosine receptor A2a (Homo sapiens) / Ki / "Cn1c(=O)c2c(nc3n2CCCN3Cc2ccccc2F)n(C)c1=O" : value?
Output: 1210

Note: attention shifts to another entry.
Input: Adenosine receptor A2a (Homo sapiens) / Ki / "Cn1c(=O)c2c(nc3n2CCCN3Cc2c(F)cccc2Cl)n(C)c1=O" : value?
Output: 189

----------
# assayed_target: Adenosine receptor A1 (Rattus norvegicus, UniProt P25099)
# Sequence (P25099 whole entry): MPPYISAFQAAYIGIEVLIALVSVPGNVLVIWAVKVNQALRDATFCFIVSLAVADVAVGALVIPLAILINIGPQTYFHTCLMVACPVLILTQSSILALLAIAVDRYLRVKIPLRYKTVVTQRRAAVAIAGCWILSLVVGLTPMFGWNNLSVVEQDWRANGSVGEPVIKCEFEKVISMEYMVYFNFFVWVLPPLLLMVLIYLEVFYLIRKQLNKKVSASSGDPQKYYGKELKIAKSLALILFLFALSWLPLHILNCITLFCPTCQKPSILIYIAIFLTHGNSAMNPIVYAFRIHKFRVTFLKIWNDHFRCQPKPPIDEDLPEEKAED
endpoint_label: Ki (µM)
The reply should be a number in µM, with the unit left off.

Guide cases for Ki, answers given:
Input: Adenosine receptor A1 (Rattus norvegicus, UniProt P25099) / Ki / "Cc1cccc(CN2CCCn3c2nc2c3c(=O)n(C)c(=O)n2C)c1" : value?
Output: 1.91

Input: Adenosine receptor A1 (Rattus norvegicus, UniProt P25099) / Ki / "Cn1c(=O)c2c(nc3n2CCCN3Cc2ccccc2Br)n(C)c1=O" : value?
Output: 2.32

Input: Adenosine receptor A1 (Rattus norvegicus, UniProt P25099) / Ki / "Cc1ccccc1CN1CCCn2c1nc1c2c(=O)n(C)c(=O)n1C" : value?
Output: 1.41

Input: Adenosine receptor A1 (Rattus norvegicus, UniProt P25099) / Ki / "Cn1c(=O)c2c(nc3n2CCCN3Cc2ccc(F)c(Br)c2)n(C)c1=O" : value?
Output: 4.36

Note: attention shifts to another entry.
Input: Adenosine receptor A1 (Rattus norvegicus, UniProt P25099) / Ki / "Cn1c(=O)c2c(nc3n2CCCN3Cc2cc(Cl)ccc2Cl)n(C)c1=O" : value?
Output: 3.02

----------
Quick reference for inhibition (INH) among some compounds
# assayed_target: Amine oxidase [flavin-containing] B (Homo sapiens)
# Sequence (P27338 whole entry): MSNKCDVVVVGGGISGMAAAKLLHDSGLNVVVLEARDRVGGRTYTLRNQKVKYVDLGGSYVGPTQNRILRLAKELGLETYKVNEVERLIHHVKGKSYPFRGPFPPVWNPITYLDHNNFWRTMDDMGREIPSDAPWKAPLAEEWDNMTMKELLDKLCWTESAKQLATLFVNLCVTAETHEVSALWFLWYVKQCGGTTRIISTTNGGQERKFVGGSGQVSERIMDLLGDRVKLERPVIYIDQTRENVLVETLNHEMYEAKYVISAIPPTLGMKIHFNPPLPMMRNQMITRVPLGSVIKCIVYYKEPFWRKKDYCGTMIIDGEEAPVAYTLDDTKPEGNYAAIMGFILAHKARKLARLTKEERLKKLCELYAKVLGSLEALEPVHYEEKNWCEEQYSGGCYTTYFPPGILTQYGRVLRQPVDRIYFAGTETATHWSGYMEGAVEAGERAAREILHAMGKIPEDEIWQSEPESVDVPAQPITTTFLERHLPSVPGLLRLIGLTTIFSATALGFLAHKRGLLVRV
# protocol_description: Inhibition of recombinant human MAOB expressed in baculovirus infected BTI insect cells at 1 to 100 uM using p-tyramine as substrate preincubated for 30 mins followed by substrate addition and measured over 45 mins by horseradish peroxidase-Amplex Red-coupled fluorometric assay relative to control
# setup_conditions: 0.75 h
The reply should be a number in %, with the unit left off.

Guide cases for inhibition (INH), answers given:
Input: Consider the compound "Cn1c(=O)c2c(nc3n2CCCCN3Cc2ccccc2F)n(C)c1=O" and give its measured inhibition (INH).
Output: 39

Input: Consider the compound "Cn1c(=O)c2c(nc3n2CCCN3Cc2cccs2)n(C)c1=O" and give its measured inhibition (INH).
Output: 20

Input: Consider the compound "Cn1c(=O)c2c(nc3n2CCN3Cc2cccc(Br)c2)n(C)c1=O" and give its measured inhibition (INH).
Output: 39

Input: Consider the compound "Cn1c(=O)c2c(nc3n2CCCN3Cc2cc(F)c(F)c(F)c2)n(C)c1=O" and give its measured inhibition (INH).
Output: 24

Input: Consider the compound "Cn1c(=O)c2c(nc3n2CCN3Cc2ccc(Cl)cc2)n(C)c1=O" and give its measured inhibition (INH).
Output: 42

New cases:
Input: Consider the compound "Cn1c(=O)c2c(nc3n2CCCN3CCc2cccnc2)n(C)c1=O" and give its measured inhibition (INH).
Output: 1

Input: Consider the compound "Cc1ccccc1CN1CCCn2c1nc1c2c(=O)n(C)c(=O)n1C" and give its measured inhibition (INH).
Output: 40

Input: Consider the compound "Cn1c(=O)c2c(nc3n2CCCN3CCc2ccncc2)n(C)c1=O" and give its measured inhibition (INH).
Output: 4

----------
Quick reference for Ki among some compounds
# assayed_target: Adenosine receptor A1 (Homo sapiens, UniProt P30542)
# Sequence (P30542 whole entry): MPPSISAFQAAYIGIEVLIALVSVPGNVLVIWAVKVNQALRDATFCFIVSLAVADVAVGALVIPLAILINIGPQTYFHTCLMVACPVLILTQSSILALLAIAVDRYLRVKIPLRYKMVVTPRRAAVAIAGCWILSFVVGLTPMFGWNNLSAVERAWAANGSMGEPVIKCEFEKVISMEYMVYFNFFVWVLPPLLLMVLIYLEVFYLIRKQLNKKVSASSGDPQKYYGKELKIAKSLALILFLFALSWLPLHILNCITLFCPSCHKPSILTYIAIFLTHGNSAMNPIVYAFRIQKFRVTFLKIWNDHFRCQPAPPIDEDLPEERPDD
# protocol_description: Displacement of [3H]CCPA from recombinant human adenosine A1 receptor expressed in CHO cells

Guide cases for Ki, answers given:
Input: Consider the compound "Cn1c(=O)c2c(nc3n2CCN3Cc2cccc(Br)c2)n(C)c1=O" and give its measured Ki.
Output: 396 nM

Input: Consider the compound "Cn1c(=O)c2c(nc3n2CCCCN3Cc2ccccc2Br)n(C)c1=O" and give its measured Ki.
Output: > 1000 nM

Input: Consider the compound "Cn1c(=O)c2c(nc3n2CCCCN3Cc2ccc(Cl)cc2)n(C)c1=O" and give its measured Ki.
Output: > 1000 nM

Input: Consider the compound "Cn1c(=O)c2c(nc3n2CCCCN3Cc2cccc(Br)c2)n(C)c1=O" and give its measured Ki.
Output: 651 nM

Input: Consider the compound "Cn1c(=O)c2c(nc3n2CCN3Cc2ccc(Cl)cc2)n(C)c1=O" and give its measured Ki.
Output: > 1000 nM

New cases:
Input: Consider the compound "COc1ccccc1CN1CCCCn2c1nc1c2c(=O)n(C)c(=O)n1C" and give its measured Ki.
Output: > 1000 nM

Input: Consider the compound "Cn1c(=O)c2c(nc3n2CCN3Cc2ccc(F)c(Br)c2)n(C)c1=O" and give its measured Ki.
Output: > 1000 nM

----------
# assayed_target: Amine oxidase [flavin-containing] B (Homo sapiens, UniProt P27338)
# protocol_description: Inhibition of recombinant human MAOB expressed in baculovirus infected BTI insect cells using p-tyramine as substrate preincubated for 30 mins followed by substrate addition and measured over 45 mins by horseradish peroxidase-Amplex Red-coupled fluorometric assay
Quick reference for IC50 among some compounds
The reply should be a number in µM, with the unit left off.

Guide cases for IC50, answers given:
Input: Amine oxidase [flavin-containing] B (Homo sapiens, UniProt P27338) / IC50 / "Cn1c(=O)c2c(nc3n2CCCCN3Cc2cccc(Br)c2)n(C)c1=O" : value?
Output: 0.371

Input: Amine oxidase [flavin-containing] B (Homo sapiens, UniProt P27338) / IC50 / "Cn1c(=O)c2c(nc3n2CCCN3Cc2ccc(Br)cc2F)n(C)c1=O" : value?
Output: 0.426

New cases:
Input: Amine oxidase [flavin-containing] B (Homo sapiens, UniProt P27338) / IC50 / "Cn1c(=O)c2c(nc3n2CCCN3Cc2ccc(C(C)(C)C)cc2)n(C)c1=O" : value?
Output: 1.35
